# Tested on: HCC-15
# Protocol Summary: relative viability (nuclei count vs DMSO), 5 days (fraction); higher = more cells survive
# Experimental Context: first compound 2.53 µM
Endpoint Label: relative viability

- Compound: "O=c1cc(-c2cccc3c2Sc2ccccc2S3)oc(N2CCOCC2)c1 + Nc1nc2[nH]cc(CCc3ccc(C(=O)N[C@@H](CCC(=O)O)C(=O)O)cc3)c2c(=O)[nH]1 [Pemetrexed] (partner 0.2 µM)"
  relative viability: 0.204
- Compound: "COc1nc(C)cnc1NS(=O)(=O)c1cccnc1-c1ccc(-c2nnco2)cc1 [Zibotentan] + Cc1cc(Nc2cc(N3CCN(C)CC3)nc(Sc3ccc(NC(=O)C4CC4)cc3)n2)n[nH]1 [Tozasertib] (partner 0.1 µM)"
  relative viability: 0.402

# evaluate next
// relative viability lookup, compound = COc1nc(C)cnc1NS(=O)(=O)c1cccnc1-c1ccc(-c2nnco2)cc1 [Zibotentan] + CC(=O)Nc1cccc(-n2c(=O)n(C3CC3)c(=O)c3c(Nc4ccc(I)cc4F)n(C)c(=O)c(C)c32)c1 [Trametinib] (partner 0.02 µM) , result: 0.319
